Target: CCL13 (MCP-4) (Homo sapiens) (UniProt Q99616)
Sequence (Q99616 24-98): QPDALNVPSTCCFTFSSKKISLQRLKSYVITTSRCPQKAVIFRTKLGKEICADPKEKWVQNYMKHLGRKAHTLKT
Test: SPR
Settings: all L-ribonucleotides (L-RNA, mirror image); SPR (Biacore 2000), chemokine immobilized on CM4/CM5, physiological running buffer, 37 C; complex formation in 20 mM HEPES pH 7.4, 100 mM NaCl, 5 mM KCl, 1 mM …
measured_parameter: Kd (nM)
Give bare numbers, in nM.

Indicate its recorded Kd; the sequence in question is GCACGUCCCUCACCGGUGCAAGUGAAGCCGUGGCUCUGCG [NOX-E36 L-aptamer (Spiegelmer, without PEG)] 22

* * *

Target: CCL8 (MCP-2) (Homo sapiens) (UniProt P80075)
Sequence: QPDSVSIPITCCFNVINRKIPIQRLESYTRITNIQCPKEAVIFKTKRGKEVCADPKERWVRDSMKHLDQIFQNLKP
Assay: SPR
Settings: all L-ribonucleotides (L-RNA, mirror image); SPR (Biacore 2000), chemokine immobilized on CM4/CM5, physiological running buffer, 37 C; complex formation in 20 mM HEPES pH 7.4, 100 mM NaCl, 5 mM KCl, 1 mM …
measured_parameter: Kd (nM)
Give bare numbers, in nM.

Indicate its recorded Kd; the sequence in question is GCACGUCCCUCACCGGUGCAAGUGAAGCCGUGGCUCUGCG [NOX-E36 L-aptamer (Spiegelmer, without PEG)] 3.35
